System: 429239-143-T-J1-PDC complex spheroid viability
Assay Procedure: Anticancer human tumor 429239-143-T-J1-PDC patient-derived small cell lung carcinoma cell line growth inhibition [POLQ]
Test Context: curve of first compound; second compound 0.0316 µM
pIC50: −log10 of the molar value.
pIC50 listing for selected compounds.
Quantity Name: pIC50

INSERT INTO assay_data (compound, relation_qualifier, measured_result) VALUES
  ('C=CC(=O)N1CCN(c2nc(=O)n(-c3c(C)ccnc3C(C)C)c3nc(-c4c(O)cccc4F)c(F)cc23)C(C)C1 (stereo not given) + COC1C(OC(N)=O)C(O)C(Oc2ccc3c(O)c(NC(=O)c4ccc(O)c(CC=C(C)C)c4)c(=O)oc3c2C)OC1(C)C', '<', 5.00),
  ('COc1cc(C2c3cc4c(cc3C(OC3OC5COC(C)OC5C(O)C3O)C3COC(=O)C23)OCO4)cc(OC)c1O (stereo not given) + COC1C(OC(N)=O)C(O)C(Oc2ccc3c(O)c(NC(=O)c4ccc(O)c(CC=C(C)C)c4)c(=O)oc3c2C)OC1(C)C', '=', 6.52),
  ('COc1cc2cc(C(=O)CCC(=O)O)sc2cc1OC + Cc1cccc(N(C)C(=O)C2C(O)CCN2c2nc(C)cc(C(F)(F)F)c2C#N)c1', '<', 5.00),
  ('CC[C@@]1(O)C(=O)OCc2c1cc1n(c2=O)Cc2cc3c(CN(C)C)c(O)ccc3nc2-1 + COC1C(OC(N)=O)C(O)C(Oc2ccc3c(O)c(NC(=O)c4ccc(O)c(CC=C(C)C)c4)c(=O)oc3c2C)OC1(C)C', '=', 7.87),
  ('CC(C)n1c(=O)n(C)c2cnc3cc(F)c(-c4ccc(OCCCN5CCCCC5)nc4)cc3c21 + Nc1ccc(C#CCN(C(=O)Cc2ncc(C(F)(F)F)cc2C(F)(F)F)c2ccc(F)cc2)nn1', '<', 5.00),
  ('COc1ccc([C@@H](O)c2cc(-c3ncnc4cc(N5CCOCC5)ccc34)c(F)cc2Cl)nn1 + COC1C(OC(N)=O)C(O)C(Oc2ccc3c(O)c(NC(=O)c4ccc(O)c(CC=C(C)C)c4)c(=O)oc3c2C)OC1(C)C', '=', 5.51),
  ('CCCS(=O)(=O)Nc1ccc(F)c(C(=O)c2c[nH]c3ncc(-c4ccc(Cl)cc4)cc23)c1F + COC1C(OC(N)=O)C(O)C(Oc2ccc3c(O)c(NC(=O)c4ccc(O)c(CC=C(C)C)c4)c(=O)oc3c2C)OC1(C)C', '<', 5.00),
  ('CC1COCCN1c1cc(C2(O)CC3CCC(C2)O3)c2cnn(-c3ccn[nH]3)c2n1 (stereo not given) + Nc1ccc(C#CCN(C(=O)Cc2ncc(C(F)(F)F)cc2C(F)(F)F)c2ccc(F)cc2)nn1', '=', 6.56),
  ('CCc1c2c(nc3ccc(O)cc13)-c1cc3c(c(=O)n1C2)COC(=O)[C@]3(O)CC + COC1C(OC(N)=O)C(O)C(Oc2ccc3c(O)c(NC(=O)c4ccc(O)c(CC=C(C)C)c4)c(=O)oc3c2C)OC1(C)C', '>', 8.50),
  ('COc1cccc(OCCCN)c1-c1cc(Nc2cnc(C#N)cn2)n[nH]1 + Nc1ccc(C#CCN(C(=O)Cc2ncc(C(F)(F)F)cc2C(F)(F)F)c2ccc(F)cc2)nn1', '=', 6.40);

* * *

Test system: 429239-143-T-J1-PDC complex spheroid viability
Assay Procedure: Anticancer human tumor 429239-143-T-J1-PDC cell line growth inhibition [POLQ];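 further: luminescence signal used as surrogate measure of viable cells; spheroids exposed to compounds for seven days before readout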
Test Context: curve of first compound; second compound 0.0316 µM
pIC50: −log10 of the molar value.
Quantity Name: pIC50

INSERT INTO results (molecule, measured_result) VALUES
  ('CCc1cc2c(N3CCc4c(cc(Cn5ccnc5)cc4-c4cn(C)nc4C(F)(F)F)C3=O)ccnc2c(OC)n1 + Nc1ccc(C#CCN(C(=O)Cc2ncc(C(F)(F)F)cc2C(F)(F)F)c2ccc(F)cc2)nn1', 5.01),
  ('CC(C)n1c(=O)n(C)c2cnc3cc(F)c(-c4ccc(OCCCN5CCCCC5)nc4)cc3c21 + COC1C(OC(N)=O)C(O)C(Oc2ccc3c(O)c(NC(=O)c4ccc(O)c(CC=C(C)C)c4)c(=O)oc3c2C)OC1(C)C', '< 5.00'),
  ('Nc1ccn(C2OC(CO)C(O)C2(F)F)c(=O)n1 (stereo not drawn) + Cc1cccc(N(C)C(=O)C2C(O)CCN2c2nc(C)cc(C(F)(F)F)c2C#N)c1', '> 7.50');

* * *

Tested on: 429239-143-T-J1-PDC complex spheroid viability
Assay Procedure: Anticancer human tumor 429239-143-T-J1-PDC cell line growth inhibition [POLQ];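 further: luminescence signal used as surrogate measure of viable cells; spheroids exposed to compounds for seven days before readout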;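 on viability, T/C: 100% = DMSO vehicle control viability as luminescence relative to vehicle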
Test Context: second compound 0.316 µM; first compound 10 µM; stronger effect = lower value
In this section we review reported viability, T/C values for a set of molecules.
Quantity Name: viability, T/C (%)

INSERT INTO measurements (molecule, quantity_name, measured_result) VALUES
  ('C#Cc1c(F)ccc2cc(O)cc(-c3ncc4c(N5CC6CCC(C5)N6)nc(OCC56CCCN5CC(F)C6)nc4c3F)c12 (stereo not drawn) + Nc1ccc(C#CCN(C(=O)Cc2ncc(C(F)(F)F)cc2C(F)(F)F)c2ccc(F)cc2)nn1', 'viability, T/C', 96.9),
  ('C=CC(=O)N1CCN(c2nc(=O)n(-c3c(C)ccnc3C(C)C)c3nc(-c4c(O)cccc4F)c(F)cc23)C(C)C1 (stereo not drawn) + Cc1cccc(N(C)C(=O)C2C(O)CCN2c2nc(C)cc(C(F)(F)F)c2C#N)c1', 'viability, T/C', 116),
  ('O=C(c1cc(Cc2n[nH]c(=O)c3ccccc23)ccc1F)N1CCN(C(=O)C2CC2)CC1 + Cc1cccc(N(C)C(=O)C2C(O)CCN2c2nc(C)cc(C(F)(F)F)c2C#N)c1', 'viability, T/C', 18.7);

* * *

System: 429239-143-T-J1-PDC complex spheroid viability
Assay Procedure: Anticancer human tumor 429239-143-T-J1-PDC cell line growth inhibition [POLQ];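 further: luminescence signal used as surrogate measure of viable cells; spheroids exposed to compounds for seven days before readout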;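 on viability, T/C: 100% = DMSO vehicle control viability as luminescence relative to vehicle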
Test Context: second compound 3.16 µM; first compound 10 µM; stronger effect = lower value
Method: Multicellular complex tumor spheroid response to Polymerase (POL) inhibitors (novobiocin, ART-558, RP6685) in combination with a variety of drugs and investigational agents in selected tumor cell lines The POL inhibitors (novobiocin, ART-558, and RP6685) were evaluated both individually and in combination with standard of care and investigational anticancer small molecules within a complex spheroid model of solid tumors. . […]
viability, T/C values for the compounds below.
Quantity Name: viability, T/C

INSERT INTO assay_data (compound, tested_system, measured_result) VALUES
  ('CC(C)n1c(=O)n(C)c2cnc3cc(F)c(-c4ccc(OCCCN5CCCCC5)nc4)cc3c21 + Cc1cccc(N(C)C(=O)C2C(O)CCN2c2nc(C)cc(C(F)(F)F)c2C#N)c1', '429239-143-T-J1-PDC complex spheroid viability', '64.7%'),
  ('CC1COCCN1c1cc(C2(O)CC3CCC(C2)O3)c2cnn(-c3ccn[nH]3)c2n1 (stereo not given) + COC1C(OC(N)=O)C(O)C(Oc2ccc3c(O)c(NC(=O)c4ccc(O)c(CC=C(C)C)c4)c(=O)oc3c2C)OC1(C)C', '429239-143-T-J1-PDC complex spheroid viability', '5.31%'),
  ('COc1cccc2c1C(=O)c1c(O)c3c(c(O)c1C2=O)CC(O)(C(=O)CO)CC3OC1CC(N)C(O)C(C)O1 (stereo not given) + Cc1cccc(N(C)C(=O)C2C(O)CCN2c2nc(C)cc(C(F)(F)F)c2C#N)c1', '429239-143-T-J1-PDC complex spheroid viability', '0.15%'),
  ('COc1cc(C2c3cc4c(cc3C(OC3OC5COC(C)OC5C(O)C3O)C3COC(=O)C23)OCO4)cc(OC)c1O (stereo not given) + Cc1cccc(N(C)C(=O)C2C(O)CCN2c2nc(C)cc(C(F)(F)F)c2C#N)c1', '429239-143-T-J1-PDC complex spheroid viability', '16.6%'),
  ('O=c1[nH]cc(F)c(=O)[nH]1 + Cc1cccc(N(C)C(=O)C2C(O)CCN2c2nc(C)cc(C(F)(F)F)c2C#N)c1', '429239-143-T-J1-PDC complex spheroid viability', '47.6%'),
  ('C#Cc1c(F)ccc2cc(O)cc(-c3ncc4c(N5CC6CCC(C5)N6)nc(OCC56CCCN5CC(F)C6)nc4c3F)c12 (stereo not given) + Cc1cccc(N(C)C(=O)C2C(O)CCN2c2nc(C)cc(C(F)(F)F)c2C#N)c1', '429239-143-T-J1-PDC complex spheroid viability', '92%'),
  ('COc1cccc2c1C(=O)c1c(O)c3c(c(O)c1C2=O)CC(O)(C(=O)CO)CC3OC1CC(N)C(O)C(C)O1 (stereo not given) + Nc1ccc(C#CCN(C(=O)Cc2ncc(C(F)(F)F)cc2C(F)(F)F)c2ccc(F)cc2)nn1', '429239-143-T-J1-PDC complex spheroid viability', '0.16%'),
  ('C=CC(=O)N1CCN(c2nc(=O)n(-c3c(C)ccnc3C(C)C)c3nc(-c4c(O)cccc4F)c(F)cc23)C(C)C1 (stereo not given) + COC1C(OC(N)=O)C(O)C(Oc2ccc3c(O)c(NC(=O)c4ccc(O)c(CC=C(C)C)c4)c(=O)oc3c2C)OC1(C)C', '429239-143-T-J1-PDC complex spheroid viability', '103%'),
  ('CCc1cc2c(N3CCc4c(cc(Cn5ccnc5)cc4-c4cn(C)nc4C(F)(F)F)C3=O)cc(C)nc2c(OC)n1 + Cc1cccc(N(C)C(=O)C2C(O)CCN2c2nc(C)cc(C(F)(F)F)c2C#N)c1', '429239-143-T-J1-PDC complex spheroid viability', '54.6%'),
  ('COc1cc(C2c3cc4c(cc3C(OC3OC5COC(C)OC5C(O)C3O)C3COC(=O)C23)OCO4)cc(OC)c1O (stereo not given) + COC1C(OC(N)=O)C(O)C(Oc2ccc3c(O)c(NC(=O)c4ccc(O)c(CC=C(C)C)c4)c(=O)oc3c2C)OC1(C)C', '429239-143-T-J1-PDC complex spheroid viability', '13.7%');

Hey, just so you know, these numbers are from PubChem BioAssay AID1963845.
